Quick reference for MIC among some compounds
Tested on: Escherichia coli
Experiment: Antimicrobial activity against Escherichia coli DH5alpha expressing pIP19 containing Aeromonas caviae A324R metallo-beta-lactamase blaIMP-19 gene by broth dilution method
Type: functional

[
  {
    "entry.smiles": "C[C@]1(Cn2ccnn2)[C@H](C(=O)O)N2C(=O)C[C@H]2S1(=O)=O",
    "MIC": "0.5 µg/mL"
  },
  {
    "entry.smiles": "CC(C)(O/N=C(\\C(=O)N[C@@H]1C(=O)N2C(C(=O)[O-])=C(C[n+]3ccccc3)CS[C@H]12)c1csc(N)n1)C(=O)O",
    "MIC": "512 µg/mL"
  },
  {
    "entry.smiles": "Cc1nnc(SCC2=C(C(=O)O)N3C(=O)[C@@H](NC(=O)Cn4cnnn4)[C@H]3SC2)s1",
    "MIC": "256 µg/mL"
  },
  {
    "entry.smiles": "CO[C@@]1(NC(=O)Cc2cccs2)C(=O)N2C(C(=O)O)=C(COC(N)=O)CS[C@@H]21",
    "MIC": "512 µg/mL"
  }
]
